- STUDY TARGET: human orexin 1 receptor (Homo sapiens, UniProt O43613)
- TEST SUMMARY: Human orexin 1 receptor radioligand binding
- TEST CONTEXT: human orexin 1 receptor; averages of 2-20 runs; read-out: hOX1 Ki
pKi: −log10 of the molar value.
QUANTITY KIND: pKi

- Cc1ccc(-c2ncccn2)c(C(=O)N2C[C@H]3C[C@@H](Nc4cnc(C(F)(F)F)cn4)[C@@H]2C3)n1: 7.89

A: O=C(c1ccccc1-c1ncc(F)cn1)N1CC2CCC1C(Oc1ccc(C(F)(F)F)cn1)C2 (racemic)
B: O=C(c1ccccc1-c1ncc(F)cn1)N1C[C@H]2C[C@@H](Nc3ncc(C(F)(F)F)cc3F)[C@@H]1C2
C: Cc1cnc(C(=O)N2C[C@@H]3CC[C@H]2[C@H](Oc2ncc(C(F)(F)F)cc2F)C3)c(-c2ncccn2)c1
// query Please give the order of these compounds when sorted by pKi, largest value leading. Answer by naming the labels in the order asked.
// result B, A, C
(B: 8.30, A: 7.96, C: 7.57)

----------
- STUDY TARGET: human orexin 1 receptor (Homo sapiens)
- TEST SUMMARY: Human orexin 1 receptor radioligand binding
- TEST CONTEXT: human orexin 1 receptor; averages of 2-20 runs; read-out: hOX1 Ki
QUANTITY KIND: Ki (nM)

Example cases with answers are listed next.
• O=C(c1cccc(F)c1-c1ncccn1)N1C[C@H]2C[C@@H](N(CC3CC3)c3ccc(C(F)(F)F)cn3)[C@@H]1C2 = 5
• Cc1cnc(C(=O)N2C[C@@H]3CC[C@H]2[C@H](Oc2ccc(C(F)(F)F)cn2)C3)c(-c2ncccn2)c1 = 16
• CN(c1ccc(C(F)(F)F)cn1)[C@@H]1C[C@H]2C[C@@H]1N(C(=O)c1c(F)cccc1-c1ncccn1)C2 = 4
• O=C(c1c(F)cccc1-c1ncccn1)N1C[C@H]2C[C@@H](Nc3cnc(C(F)(F)F)cn3)[C@@H]1C2 = 6
• Cc1ccc(-n2nccn2)c(C(=O)N2CC3CC(Oc4ncc(C(F)(F)F)cc4F)C2C3)n1 (centres unmarked) = 28

P: CN(c1ccc(C(F)(F)F)cn1)[C@@H]1C[C@H]2C[C@@H]1N(C(=O)c1cc(F)ccc1-c1ncccn1)C2
Q: O=C(c1cccc(F)c1-c1ncccn1)N1C[C@H]2C[C@@H](Nc3ccc(C(F)(F)F)nc3)[C@@H]1C2
R: O=C(c1ccccc1-c1ncccn1)N1C[C@H]2C[C@@H](Nc3cnc(Cl)cn3)[C@@H]1C2
S: O=C(c1cccc(F)c1-c1ncccn1)N1C[C@H]2C[C@@H](Nc3ncc(C(F)(F)F)cn3)[C@@H]1C2
T: O=C(c1cccc(F)c1-c1ncccn1)N1C[C@H]2C[C@@H](Oc3ncc(Cl)cn3)[C@@H]1C2
// query Please give the order of these compounds when sorted by Ki, largest value leading. Answer by naming the labels in the order asked.
// result T, Q, R, S, P
(T: 47 nM, Q: 31 nM, R: 13 nM, S: 8 nM, P: 2 nM)

1: O=C(c1ccccc1-n1nccn1)N1C[C@H]2C[C@@H](Nc3ccc(C(F)F)cn3)[C@@H]1C2
2: O=C(c1ccc(F)cc1-c1ncccn1)N1C[C@H]2C[C@@H](Nc3cnc(C(F)(F)F)cn3)[C@@H]1C2
3: O=C(c1cccc(F)c1-c1ncccn1)N1C[C@@H]2CC[C@H]1[C@H](Oc1ncc(C(F)(F)F)cc1Cl)C2
// query Please give the order of these compounds when sorted by Ki, largest value leading. Answer by naming the labels in the order asked.
// result 1, 3, 2

----------
- STUDY TARGET: human orexin 2 receptor (Homo sapiens (Human), UniProt O43614)
- Sequence (O43614 whole entry): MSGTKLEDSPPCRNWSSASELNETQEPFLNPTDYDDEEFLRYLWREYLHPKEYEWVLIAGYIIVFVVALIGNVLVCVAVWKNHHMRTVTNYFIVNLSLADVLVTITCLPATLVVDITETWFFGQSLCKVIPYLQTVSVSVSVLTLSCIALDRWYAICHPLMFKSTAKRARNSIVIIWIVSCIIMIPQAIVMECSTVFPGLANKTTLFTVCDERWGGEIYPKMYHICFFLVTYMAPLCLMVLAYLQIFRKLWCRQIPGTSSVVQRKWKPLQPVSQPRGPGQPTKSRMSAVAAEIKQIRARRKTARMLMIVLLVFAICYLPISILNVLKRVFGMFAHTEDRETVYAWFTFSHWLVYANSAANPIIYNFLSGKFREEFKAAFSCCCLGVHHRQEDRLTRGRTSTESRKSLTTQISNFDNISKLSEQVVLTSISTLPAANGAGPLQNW
- TEST SUMMARY: Human orexin 2 receptor radioligand binding
- TEST CONTEXT: human orexin 2 receptor; averages of 2-20 runs; read-out: hOX2 Ki
QUANTITY KIND: Ki (µM)

1: CCOc1ccc(C)nc1C(=O)N1C[C@H]2C[C@@H](Nc3ncc(C(F)(F)F)cn3)[C@@H]1C2
2: O=C(c1cc(F)ccc1-c1ncccn1)N1C[C@H]2C[C@@H](Oc3cnc(C(F)(F)F)cn3)[C@@H]1C2
3: Cc1ccc(-n2nccn2)c(C(=O)N2C[C@@H]3CC[C@H]2[C@H](Oc2cnc(C(F)(F)F)cn2)C3)n1
4: O=C(c1cc(F)ccc1-c1ncco1)N1C[C@H]2C[C@@H](Nc3cnc(C(F)(F)F)cn3)[C@@H]1C2
// query Write the entries in order, lowest recorded Ki first. Answer by naming the labels in the order asked.
// result 4, 1, 3, 2
(4: 0.302 µM, 1: 1.1 µM, 3: 1.7 µM, 2: 3.8 µM)

----------
- STUDY TARGET: human orexin 2 receptor (Homo sapiens (Human), UniProt O43614)
- TEST SUMMARY: Human orexin 2 receptor radioligand binding
- TEST CONTEXT: human orexin 2 receptor; averages of 2-20 runs; read-out: hOX2 Ki
pKi: −log10 of the molar value.
QUANTITY KIND: pKi

• Cc1cnc(C(=O)N2C[C@H]3C[C@@H](Nc4ccc(C(F)(F)F)cn4)[C@@H]2C3)c(-c2ncccn2)c1 = 5.34

a: O=C(c1cccc(F)c1-c1ncccn1)N1C[C@H]2C[C@@H](Oc3cc(C(F)(F)F)ccn3)[C@@H]1C2
b: O=C(c1ccccc1-c1ncccn1)N1C[C@H]2C[C@@H](Oc3ccc(C(F)(F)F)cn3)[C@@H]1C2
c: O=C(c1cccc(F)c1-n1nccn1)N1CC2CCC1C(Nc1cnc(C(F)(F)F)cn1)C2 (racemic)
d: O=C(c1ccccc1-n1nccn1)N1C[C@H]2C[C@@H](Oc3ncc(Cl)cn3)[C@@H]1C2
// query Please give the order of these molecules when sorted by pKi, largest value leading. Answer by naming the labels in the order asked.
// result a, b, c, d

I: O=C(c1ccccc1-n1nccn1)N1C[C@H]2C[C@@H](Nc3ncc(C(F)(F)F)cc3F)[C@@H]1C2
II: O=C(c1cc(F)ccc1-n1nccn1)N1C[C@H]2C[C@@H](Oc3ccc(Cl)cn3)[C@@H]1C2
III: O=C(c1cccc2cn[nH]c12)N1C[C@H]2C[C@@H](Nc3ccc(C(F)(F)F)cn3)[C@@H]1C2
// query Put the molecules in ascending order of pKi. Answer by naming the labels in the order asked.
// result III, II, I

----------
- STUDY TARGET: human orexin 2 receptor (Homo sapiens (Human))
- TEST SUMMARY: Human orexin 2 receptor radioligand binding
- TEST CONTEXT: human orexin 2 receptor; averages of 2-20 runs; read-out: hOX2 Ki
QUANTITY KIND: Ki (nM)

Example cases with answers are listed next.
• O=C(c1cccc(F)c1-c1ncccn1)N1C[C@H]2C[C@@H](Oc3ncc(Cl)cn3)[C@@H]1C2 = 5600
• COc1ccc(N[C@@H]2C[C@H]3C[C@@H]2N(C(=O)c2cccc(F)c2-c2ncccn2)C3)nc1 = 1300

a: CN(c1cnc(C(F)(F)F)cn1)[C@@H]1C[C@H]2C[C@@H]1N(C(=O)c1ccccc1-c1ncccn1)C2
b: O=C(c1c(F)cccc1-c1ncccn1)N1C[C@H]2C[C@@H](Nc3ncc(C(F)(F)F)cn3)[C@@H]1C2
c: O=C(c1cc(F)ccc1-c1ncccn1)N1C[C@@H]2CC[C@H]1[C@H](Oc1ccc(C(F)(F)F)cn1)C2
// query Put the compounds in ascending order of Ki. Answer by naming the labels in the order asked.
// result c, a, b

a: Cc1ccc(-c2ncccn2)c(C(=O)N2C[C@H]3C[C@@H](Oc4ccc(C(F)(F)F)cn4)[C@@H]2C3)n1
b: Cc1ccc(-c2ncccn2)c(C(=O)N2C[C@H]3C[C@@H](Nc4ccc(C(F)(F)F)cn4)[C@@H]2C3)n1
// query I'm curious, which of these has a smaller Ki number: a or b ? # reply format: chosen label
// result b
(b: 88 nM, a: 362 nM)

----------
- STUDY TARGET: human orexin 2 receptor (Homo sapiens (Human))
- TEST SUMMARY: Human orexin 2 receptor radioligand binding
- TEST CONTEXT: human orexin 2 receptor; averages of 2-20 runs; read-out: hOX2 Ki
pKi: −log10 of the molar value.
QUANTITY KIND: pKi

Example cases with answers are listed next.
* O=C(c1cccc(F)c1-n1nccn1)N1C[C@H]2C[C@@H](Nc3cnc(Cl)cn3)[C@@H]1C2 | 6.22
* CN(c1ccc(C(F)(F)F)cn1)[C@@H]1C[C@H]2C[C@@H]1N(C(=O)c1ccccc1-n1nccn1)C2 | 6.47
* O=C(c1ccccc1-c1ccccc1)N1C[C@H]2C[C@@H](Nc3cnc(C(F)(F)F)cn3)[C@@H]1C2 | 6.99
* Cc1cnc(N[C@@H]2C[C@H]3C[C@@H]2N(C(=O)c2ccccc2-c2ncccn2)C3)cn1 | 6.55
* Cc1cnc(-c2ncccn2)c(C(=O)N2C[C@H]3C[C@@H](Nc4ccc(C(F)(F)F)cn4)[C@@H]2C3)c1 | 5.29
* O=C(c1c(F)cccc1-n1nccn1)N1C[C@H]2C[C@@H](Nc3ncc(C(F)(F)F)cn3)[C@@H]1C2 | 6.06
* O=C(c1cc(F)ccc1-c1ncccn1)N1C[C@@H]2CC[C@H]1[C@H](Nc1cnc(C(F)(F)F)cn1)C2 | 6.61
* O=C(c1ccccc1-n1nccn1)N1C[C@H]2C[C@@H](Oc3ccc4cccnc4n3)[C@@H]1C2 | 5.57
* Cc1noc(-c2cc(F)ccc2C(=O)N2C[C@H]3C[C@@H](Oc4ccc(C(F)(F)F)cn4)[C@@H]2C3)n1 | 5.38
* O=C(c1ccccc1-n1nccn1)N1C[C@H]2C[C@@H](Oc3ccc(C(F)(F)F)nn3)[C@@H]1C2 | 5.43

I: O=C(c1cc(F)ccc1-c1ncccn1)N1C[C@H]2C[C@@H](Nc3ccc(C(F)(F)F)cn3)[C@@H]1C2
II: Cc1cccc(C(=O)N2CC3CCC2C(Nc2cnc(C(F)(F)F)cn2)C3)c1-n1nccn1 (racemic)
// query Which item exceeds the other in pKi, I or II ? # reply format: chosen label
// result I
(I: 6.71, II: 6.46)
